These entries and their values trace back to patent US6083920A.

# System: InsP3 signalling in primary chick cortical neurons
# experiment-description: Phosphoinositide hydrolysis assay (InsP3 signalling) in cultured primary cortical neurons
# Format: cell-based
# study-conditions: 20 μM Psychosine + 20 μM Sphingosine, then 100 μM agonist 20 min; normalized to control = 1.00
# Experimental: Primary cultures of neurons were prepared from the telencephalon of white Leghorn chick embryos on the eighth day of their development (Rosenberg et al., J.Biol. Chem. 267:10601-10612, 1992). The neurons were seeded in 24-well plastic tissue culture plates that had been coated with L-polylysine. […] Receptor-stimulated and basal unstimulated hydrolysis of phosphoinositides was measured by the following procedure. […]
Assignment: determine reported Ins-P-n, modulator Psy:Sph for the given compounds.
Give bare numbers.

compound="N[C@@H](Cn1oc(=O)[nH]c1=O)C(=O)O [Quisqualate, quisqualate]" target_system="InsP3 signalling in primary chick cortical neurons" measurement_type="Ins-P-n, modulator Psy:Sph" reported_value=3.30
compound="N[C@@H](CC(=O)O)C(=O)O [Aspartate, aspartate]" target_system="InsP3 signalling in primary chick cortical neurons" measurement_type="Ins-P-n, modulator Psy:Sph" reported_value=2.65
compound="N[C@@H](CCC(=O)O)C(=O)O [Glutamate, glutamate]" target_system="InsP3 signalling in primary chick cortical neurons" measurement_type="Ins-P-n, modulator Psy:Sph" reported_value=3.00

Now consider a different compound.
Exercise: API: value(readout= Ins-P-n, modulator Psy:Sph, system= InsP3 signalling in primary chick cortical neurons, query= NC(C(=O)O)c1cc(O)no1 (stereo not shown) [Ibotenate, ibotenate] )
Solution: 3.10
